This collection of values is drawn from paper PMC10770036.

Provide the reported pIC50 of each item.
tested on: MDA-MB-436 cells; assay: MTT cell viability assay, MDA-MB-436; settings: Homo sapiens, MDA-MB-436, 72 h, read-out: IC50 MDA-MB-436
The scale used: pIC50 is minus the common logarithm of the concentration in molar units.

Lookup: Write down pIC50 measured for item O=C(c1cc(Cc2n[nH]c(=O)c3ccccc23)ccc1F)N1CCN(C(=O)C2CC2)CC1 [Olaparib, olaparib, reference compound]
Found: 5.09

Lookup: Write down pIC50 measured for item `Nc1ccccc1NC(=O)Cc1ccc(CN2CCN(C(=O)c3cc(Cc4n[nH]c(=O)c5ccccc45)ccc3F)CC2)cc1`
Found: 6.01

Lookup: Write down pIC50 measured for item `Nc1cc(F)ccc1NC(=O)/C=C/c1ccc(CN2CCN(C(=O)c3cc(Cc4n[nH]c(=O)c5ccccc45)ccc3F)CC2)cc1`
Found: 6.80

Lookup: Write down pIC50 measured for item `Nc1ccccc1NC(=O)CCc1ccc(CN2CCN(C(=O)c3cc(Cc4n[nH]c(=O)c5ccccc45)ccc3F)CC2)cc1`
Found: 5.76

Lookup: Write down pIC50 measured for item `Nc1ccccc1NC(=O)/C=C/c1ccc(CN2CCN(C(=O)c3cc(Cc4n[nH]c(=O)c5ccccc45)ccc3F)CC2)cc1`
Found: 6.28

Lookup: Write down pIC50 measured for item Nc1cc(F)ccc1NC(=O)c1ccc(CNC(=O)/C=C/c2cccnc2)cc1 [Chidamide, chidamide, reference compound]
Found: 5.38

Lookup: Write down pIC50 measured for item `Nc1cc(F)ccc1NC(=O)CCc1ccc(CN2CCN(C(=O)c3cc(Cc4n[nH]c(=O)c5ccccc45)ccc3F)CC2)cc1`
Found: 5.39

Lookup: Write down pIC50 measured for item `Nc1cc(F)ccc1NC(=O)Cc1ccc(CN2CCN(C(=O)c3cc(Cc4n[nH]c(=O)c5ccccc45)ccc3F)CC2)cc1`
Found: 6.19
